Experiment: Drug absorption experiment in SD rats, intragastric administration
Type: in vivo, SD rats (Sprague Dawley rats)
Details: both sexes, Sprague-Dawley, rat, plasma, oral, intragastric vs intravenous, calculated from AUC0-t after dosage calibration, read-out: F (absolute bioavailability)

MOLECULE	bioavailability / %
C=CC(=O)Nc1cc(Nc2nccc(-c3cn(C)c4ccccc34)n2)c(OCC(F)(F)F)nc1N(C)CCN(C)C [Example 2]	28.3

----------
Test: Drug absorption experiment in SD rats, intravenous administration
Assay type: in vivo, SD rats (Sprague Dawley rats)
Settings: both sexes, Sprague-Dawley, rat, plasma, iv; read-out: T1/2 (elimination half-life) (converted)

COMPOUND	half-life, h
C=CC(=O)Nc1cc(Nc2nccc(-c3cn(C)c4ccccc34)n2)c(OCC(F)(F)F)nc1N(C)CCN(C)C [Example 2]	3.13

----------
Test: Drug absorption experiment in SD rats, intravenous administration
Assay type: in vivo, SD rats (Sprague Dawley rats)
Details: both sexes, Sprague-Dawley, rat, plasma, iv; read-out: Cmax
READOUT_KIND: Cmax (ng/mL)

1. C=CC(=O)Nc1cc(Nc2nccc(-c3cn(C)c4ccccc34)n2)c(OCC(F)(F)F)nc1N(C)CCN(C)C 430

----------
Experiment: Drug absorption experiment in SD rats, intravenous administration
Format: in vivo, SD rats (Sprague Dawley rats)
Conditions: both sexes, Sprague-Dawley, rat, plasma, iv; read-out: AUC0-t
READOUT_KIND: AUC(0-t) (ng·h/mL)

1) C=CC(=O)Nc1cc(Nc2nccc(-c3cn(C)c4ccccc34)n2)c(OCC(F)(F)F)nc1N(C)CCN(C)C 406

----------
Assay: Drug absorption experiment in SD rats, intragastric administration
Format: in vivo, SD rats (Sprague Dawley rats)
Conditions: both sexes, Sprague-Dawley, rat, plasma, po, intragastric, dosage 10 (Example 1), 10 (Example 2), 6 (Comparative Example 1), 10 (Comparative Example 2) mg/kg, plasma, read-out: AUC0-t
AUC(0-t) values by entry

COMPOUND	AUC(0-t) [ng·h/mL]
C=CC(=O)Nc1cc(Nc2nccc(-c3cn(C)c4ccccc34)n2)c(OCC(F)(F)F)nc1N(C)CCN(C)C	232
C=CC(=O)Nc1cc(Nc2nccc(-c3cn(C)c4ccccc34)n2)c(OC(C)C)nc1N(C)CCN(C)C [Comparative Example 1, reference compound]	77.7
C=CC(=O)Nc1cc(Nc2ncc(Cl)c(-c3cn(C)c4ccccc34)n2)c(OC(C)C)nc1N(C)CCN(C)C [Comparative Example 2, reference compound]	172

----------
half-life values by entry
Experiment: Drug absorption experiment in SD rats, intragastric administration
Format: in vivo, SD rats (Sprague Dawley rats)
Details: both sexes, Sprague-Dawley, rat, plasma, po, intragastric, dosage 10 (Example 1), 10 (Example 2), 6 (Comparative Example 1), 10 (Comparative Example 2) mg/kg, plasma, read-out: T1/2 (elimination half-life) (converted)

COMPOUND	DISPLAY_UNIT	half-life
C=CC(=O)Nc1cc(Nc2ncc(Cl)c(-c3cn(C)c4ccccc34)n2)c(OC(C)C)nc1N(C)CCN(C)C [Comparative Example 2, reference compound]	min	346
C=CC(=O)Nc1cc(Nc2nccc(-c3cn(C)c4ccccc34)n2)c(OC(C)C)nc1N(C)CCN(C)C [Comparative Example 1, reference compound]	min	516
